- Test Method Notes: Cytotoxicity against mouse NIH/3T3 cells after 48 hrs by SRB method
- Type: cell-based
- Assay Conditions: NIH3T3, 48 h
Result Type: pIC50
Convention used: pIC50 is expressed as -log10 of the molar concentration.

Task: State its pIC50: FC(F)(F)c1ccc(-c2nc3ccccc3c3c2[nH]c2ccccc23)cc1
Output: 3.96

Task: Give pIC50 for COc1ccc(-c2nc3ccccc3c3c2[nH]c2ccccc23)cc1
Output: 3.94

###

- Test Method Notes: Cytotoxicity against mouse NIH/3T3 cells after 48 hrs by SRB method
- Format: cell-based
- Assay Conditions: NIH3T3, 48 h
Assign IC50 to each entry below.
Record the value in µM, omitting the unit from your answer.

Task: Identify the reported IC50 for the following entry. CCc1ccc(-c2nc3ccccc3c3c2[nH]c2ccccc23)cc1
Output: 200

Task: Identify IC50 associated with the compound Fc1cccc(Cl)c1-c1nc2ccccc2c2c1[nH]c1ccccc12
Output: 71.1

Task: Report measured IC50; entry is c1csc(-c2ccc(-c3nc4ccccc4c4c3[nH]c3ccccc34)s2)c1
Output: 89.5

Task: Let me know recorded IC50 for Cc1cn([C@H]2C[C@H](N=[N+]=[N-])[C@@H](c3nc4ccccc4c4c3[nH]c3ccccc34)O2)c(=O)[nH]c1=O , thanks.
Output: 63.3

Task: Provide measured IC50 value, entry: COc1cccc2c1C(=O)c1c(O)c3c(c(O)c1C2=O)C[C@@](O)(C(=O)CO)C[C@@H]3O[C@H]1C[C@H](N)[C@H](O)[C@H](C)O1 [DOXORUBICIN]
Output: 5.91
